Source: paper PMC6384781

Overview of recorded SI (selectivity index for the hMAO-B isoform) for various compounds
biological target: hMAO-B (Homo sapiens, UniProt P27338); construct: purchased Sigma-Aldrich; host or cells: insect cells (microsomes); assay: hMAO-B inhibition, Amplex Red fluorometric assay with kynuramine substrate; format: biochemical; conditions: ratio IC50(hMAO-A)/IC50(hMAO-B); SI > 1 = MAO-B selective
Sequence (P27338 whole entry, canonical isoform): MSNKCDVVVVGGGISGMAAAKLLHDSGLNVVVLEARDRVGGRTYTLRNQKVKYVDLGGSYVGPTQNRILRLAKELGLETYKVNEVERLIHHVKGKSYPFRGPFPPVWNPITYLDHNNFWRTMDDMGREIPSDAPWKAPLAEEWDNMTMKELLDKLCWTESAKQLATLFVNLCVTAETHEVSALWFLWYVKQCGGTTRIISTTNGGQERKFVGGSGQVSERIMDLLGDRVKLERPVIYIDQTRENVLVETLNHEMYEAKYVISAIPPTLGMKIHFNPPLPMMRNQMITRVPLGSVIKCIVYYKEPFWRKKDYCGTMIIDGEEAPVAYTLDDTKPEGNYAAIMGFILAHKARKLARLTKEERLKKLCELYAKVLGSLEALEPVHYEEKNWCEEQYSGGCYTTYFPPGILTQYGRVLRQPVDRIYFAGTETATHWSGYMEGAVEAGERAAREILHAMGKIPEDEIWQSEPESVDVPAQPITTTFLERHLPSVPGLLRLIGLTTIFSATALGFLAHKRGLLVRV
observationType: SI (selectivity index for the hMAO-B isoform)

# compound, assaySystem, comparisonSymbol, numericReadout
measured = [
    ("CC(C)=CCCC(C)=CCOc1ccc(C2=NN(C(N)=S)C(c3ccccc3)C2)cc1 (stereo not drawn) [Compound P6]", "hMAO-B (Homo sapiens, UniProt P27338)", ">", 1.85),
    ("CCCCCOc1ccc(C2=NN(C(N)=S)[C@H](c3ccccc3)C2)cc1 [(S)-P5]", "hMAO-B (Homo sapiens, UniProt P27338)", "=", 19.77),
    ("CCCCOc1ccc(C2=NN(C(N)=S)[C@@H](c3ccccc3)C2)cc1 [(R)-P4]", "hMAO-B (Homo sapiens, UniProt P27338)", "=", 9.55),
    ("CC(=O)N1N=C(c2ccc(OCC=C(C)C)cc2)CC1c1ccc(Cl)cc1 (stereo not drawn) [Compound P15]", "hMAO-B (Homo sapiens, UniProt P27338)", "=", 1.11),
    ("CCCOc1ccc(C2=NN(C(N)=S)[C@H](c3ccccc3)C2)cc1 [(S)-P3]", "hMAO-B (Homo sapiens, UniProt P27338)", "=", 0.23),
    ("COc1ccc(C2=NN(C(N)=S)[C@@H](c3ccccc3)C2)cc1 [(R)-P1]", "hMAO-B (Homo sapiens, UniProt P27338)", "<", 0.51),
    ("CC(=O)N1N=C(c2ccc(OCC=C(C)C)cc2)CC1c1ccc(C)cc1 (stereo not drawn) [Compound P11]", "hMAO-B (Homo sapiens, UniProt P27338)", ">", 8.19),
    ("CC(=O)N1N=C(c2ccc(OCC=C(C)C)cc2)CC1c1cccc(C)c1 (stereo not drawn) [Compound P10]", "hMAO-B (Homo sapiens, UniProt P27338)", "=", 26.96),
    ("CCCCOc1ccc(C2=NN(C(N)=S)[C@H](c3ccccc3)C2)cc1 [(S)-P4]", "hMAO-B (Homo sapiens, UniProt P27338)", "=", 7.78),
]

###

Overview of recorded IC50 for various compounds
molecular target: hMAO-A (Homo sapiens); construct: purchased Sigma-Aldrich; host or cells: insect cells (microsomes); assay: hMAO-A inhibition, Amplex Red fluorometric assay with kynuramine substrate; type: biochemical; conditions: recombinant hMAO-A, kynuramine 50 µM, mean ± SD of triplicate, max tested 100 µM
Sequence (P21397 whole entry): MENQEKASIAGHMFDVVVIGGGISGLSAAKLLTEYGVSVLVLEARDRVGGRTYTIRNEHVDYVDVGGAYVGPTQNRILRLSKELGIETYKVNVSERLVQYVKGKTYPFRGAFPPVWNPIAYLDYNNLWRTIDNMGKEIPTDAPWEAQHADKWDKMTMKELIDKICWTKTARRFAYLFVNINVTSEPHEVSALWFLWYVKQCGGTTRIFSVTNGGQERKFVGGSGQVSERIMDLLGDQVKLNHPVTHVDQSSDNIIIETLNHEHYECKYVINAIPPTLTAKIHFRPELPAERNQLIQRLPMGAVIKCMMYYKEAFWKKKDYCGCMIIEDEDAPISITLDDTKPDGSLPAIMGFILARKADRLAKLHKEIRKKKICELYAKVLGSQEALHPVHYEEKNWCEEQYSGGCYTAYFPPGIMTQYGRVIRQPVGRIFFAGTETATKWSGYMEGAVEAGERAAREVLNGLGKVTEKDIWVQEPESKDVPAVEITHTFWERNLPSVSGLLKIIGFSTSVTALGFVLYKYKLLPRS
observationType: IC50

# compound, result
records = [
    ("CC(=O)N1N=C(c2ccc(OCC=C(C)C)cc2)CC1c1cccc2ccccc12 (stereo not drawn)", "> 100 µM"),
    ("CC(=O)N1N=C(c2ccc(OCC=C(C)C)cc2)CC1c1ccc(Cl)cc1Cl (stereo not drawn)", "> 100 µM"),
    ("CC(=O)N1N=C(c2ccc(OCC=C(C)C)cc2)CC1c1ccc(-c2ccccc2)cc1 (stereo not drawn)", "> 100 µM"),
]
